# measurement_target: rh beta tryptase (Homo sapiens, UniProt P20231)
# Construct: purchased Promega
# Sequence (P20231 31-275): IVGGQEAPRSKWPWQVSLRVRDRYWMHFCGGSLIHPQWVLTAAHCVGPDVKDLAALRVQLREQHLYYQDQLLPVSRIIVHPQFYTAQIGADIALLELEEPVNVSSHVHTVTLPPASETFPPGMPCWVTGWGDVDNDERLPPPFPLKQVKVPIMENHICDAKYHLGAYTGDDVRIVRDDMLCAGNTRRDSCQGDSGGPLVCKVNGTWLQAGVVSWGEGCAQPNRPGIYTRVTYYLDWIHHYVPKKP
# protocol_text: Tryptase inhibition test (cleavage of N-p-tosyl-Gly-Pro-Lys-para-nitroaniline, p-nitroaniline measured at 405 nm)
# Type: biochemical
# test_parameters: inhibition of rh beta tryptase at 10 μM test substance; substrate N-p-tosyl-Gly-Pro-Lys-para-nitroaniline 0.6 mM, pH 7.4, 37° C., 5 minutes
measure: % Inhibition (10 μM) (%)
Lab book: enter the figure in %, no units written.

The value of % Inhibition (10 μM) recorded for N=C(N)c1ccc(CCc2nc3cc(C(=O)N(Cc4ccc(Cl)cc4)Cc4ccc(CN)cc4)ccc3n2CCCNC(=O)Cc2ccccc2)cc1 when tested on rh beta tryptase (Homo sapiens, UniProt P20231) reads 72

The value of % Inhibition (10 μM) recorded for N=C(N)c1ccc(CCc2nc3cc(C(=O)N(Cc4ccc(Cl)cc4)Cc4ccc(CN)cc4)ccc3n2CCc2ccccc2)cc1 when tested on rh beta tryptase (Homo sapiens, UniProt P20231) reads 63

The value of % Inhibition (10 μM) recorded for N=C(N)c1ccc(CCc2nc3cc(C(=O)N(Cc4ccc(Cl)cc4)Cc4ccc(CN)cc4)ccc3n2CC2CCCO2)cc1 (stereo not drawn) when tested on rh beta tryptase (Homo sapiens, UniProt P20231) reads 61

###

Where a name gives a salt, the structure may show the parent alone.
measure: melting point

Completed entries (count: 3):
Cn1c(CCc2ccc(CN)cc2)nc2cc(C(=O)NCCC(c3ccccc3)c3ccccc3)ccc21 (as salt: hydrochloride) :: 140 °C
Cc1ccc(N(CCC(=N)N)C(=O)c2ccc3c(c2)nc(CCc2ccc(C(=N)N)cc2)n3C)cc1 (as salt: hydrochloride) :: 222 to 225 °C
CN(Cc1ccc(C(=N)N)cc1)C(=O)c1ccc2c(c1)nc(CCc1ccc(C(=N)N)cc1)n2C (as salt: hydrochloride) :: > 220 °C

Field: next molecule
Looking up Cn1c(CCc2ccc(C(=N)N)cc2)nc2cc(C(=O)N(CCC(=N)N)Cc3ccccc3)ccc21 (as salt: hydrochloride) , I see its melting point listed as > 220 °C

###

# measurement_target: rh beta tryptase (Homo sapiens, UniProt P20231)
# Construct: purchased Promega
# protocol_text: Tryptase inhibition test (cleavage of N-p-tosyl-Gly-Pro-Lys-para-nitroaniline, p-nitroaniline measured at 405 nm)
# Format: biochemical
# test_parameters: inhibition of rh beta tryptase at 10 μM test substance; substrate N-p-tosyl-Gly-Pro-Lys-para-nitroaniline 0.6 mM, pH 7.4, 37° C., 5 minutes
measure: inhibition at 10 µM (%)
Lab book: enter the figure in %, no units written.

Completed entries (count: 8):
CCOCCCn1c(CCc2ccc(C(=N)N)cc2)nc2cc(C(=O)N(Cc3ccc(CN)cc3)Cc3ccc4ccccc4c3)ccc21 [Example 230] :: 61
CCOCCCn1c(CCc2ccc(C(=N)N)cc2)nc2cc(C(=O)N(CCN)Cc3ccccc3F)ccc21 [Example 406] :: 54
CCCCN(Cc1ccc(CN)cc1)C(=O)c1ccc2c(c1)nc(CCc1ccc(C(=N)N)cc1)n2Cc1ccc(C)cc1 [Example 93] :: 56
CCOCCCn1c(CCc2ccc(C(=N)N)cc2)nc2cc(C(=O)N(Cc3ccc(CN)cc3)Cc3cccc(OC)c3)ccc21 [Example 70] :: 63
N=C(N)c1ccc(CCc2nc3cc(C(=O)N(CCN)Cc4ccccc4)ccc3n2CC2CCCO2)cc1 (stereo not shown) [Example 306] :: 62
N=C(N)c1ccc(CCc2nc3cc(C(=O)N(Cc4ccc(CN)cc4)Cc4cccc(C(F)(F)F)c4)ccc3n2CC2CCCO2)cc1 (stereo not shown) [Example 210] :: 59
N=C(N)c1ccc(CCc2nc3cc(C(=O)N(Cc4ccccc4)Cc4ccc(CN)cc4)ccc3n2CC2CCCO2)cc1 (stereo not shown) [Example 114] :: 58
CCCCN(CCN)C(=O)c1ccc2c(c1)nc(CCc1ccc(C(=N)N)cc1)n2CC1CCCO1 (stereo not shown) [Example 290] :: 70

The value of inhibition at 10 µM recorded for CCCCN(CCN)C(=O)c1ccc2c(c1)nc(CCc1ccc(C(=N)N)cc1)n2CCc1ccc(Cl)cc1 [Example 284] when tested on rh beta tryptase (Homo sapiens, UniProt P20231) reads 55

The value of inhibition at 10 µM recorded for COc1cccc(CN(CCN)C(=O)c2ccc3c(c2)nc(CCc2ccc(C(=N)N)cc2)n3CC2CC2)c1 [Example 266] when tested on rh beta tryptase (Homo sapiens, UniProt P20231) reads 61

The value of inhibition at 10 µM recorded for CCOCCCn1c(CCc2ccc(C(=N)N)cc2)nc2cc(C(=O)N(Cc3ccc(CN)cc3)Cc3ccc(C(=O)OC)cc3)ccc21 [Example 438] when tested on rh beta tryptase (Homo sapiens, UniProt P20231) reads 59

The value of inhibition at 10 µM recorded for CCOCCCn1c(CCc2ccc(C(=N)N)cc2)nc2cc(C(=O)N(CCN)Cc3cccc(OC)c3)ccc21 [Example 262] when tested on rh beta tryptase (Homo sapiens, UniProt P20231) reads 58

The value of inhibition at 10 µM recorded for COC(=O)c1ccc(CN(Cc2ccc(CN)cc2)C(=O)c2ccc3c(c2)nc(CCc2ccc(C(=N)N)cc2)n3CC2CC2)cc1 [Example 442] when tested on rh beta tryptase (Homo sapiens, UniProt P20231) reads 59

The value of inhibition at 10 µM recorded for CCCCN(CCN)C(=O)c1ccc2c(c1)nc(CCc1ccc(C(=N)N)cc1)n2CC1CC1 [Example 282] when tested on rh beta tryptase (Homo sapiens, UniProt P20231) reads 65

The value of inhibition at 10 µM recorded for CCOCCCn1c(CCc2ccc(C(=N)N)cc2)nc2cc(C(=O)N(CCCc3ccccc3)Cc3ccc(CN)cc3)ccc21 [Example 166] when tested on rh beta tryptase (Homo sapiens, UniProt P20231) reads 57

The value of inhibition at 10 µM recorded for N=C(N)c1ccc(CCc2nc3cc(C(=O)N(CCN)Cc4ccccc4)ccc3n2CC2CC2)cc1 [Example 298] when tested on rh beta tryptase (Homo sapiens, UniProt P20231) reads 57

The value of inhibition at 10 µM recorded for CCCCN(Cc1ccc(CN)cc1)C(=O)c1ccc2c(c1)nc(CCc1ccc(C(=N)N)cc1)n2CC1CCCO1 (stereo not shown) [Example 98] when tested on rh beta tryptase (Homo sapiens, UniProt P20231) reads 67

The value of inhibition at 10 µM recorded for N=C(N)c1ccc(CCc2nc3cc(C(=O)N(CCCc4ccccc4)Cc4ccc(CN)cc4)ccc3n2CC2CC2)cc1 [Example 170] when tested on rh beta tryptase (Homo sapiens, UniProt P20231) reads 57

The value of inhibition at 10 µM recorded for N=C(N)c1ccc(CCc2nc3cc(C(=O)N(CCN)CCCc4ccccc4)ccc3n2CC2CC2)cc1 [Example 362] when tested on rh beta tryptase (Homo sapiens, UniProt P20231) reads 74

The value of inhibition at 10 µM recorded for COc1cccc(CN(Cc2ccc(CN)cc2)C(=O)c2ccc3c(c2)nc(CCc2ccc(C(=N)N)cc2)n3CC2CCCO2)c1 (stereo not shown) [Example 82] when tested on rh beta tryptase (Homo sapiens, UniProt P20231) reads 61

The value of inhibition at 10 µM recorded for N=C(N)c1ccc(CCc2nc3cc(C(=O)N(Cc4ccc(CN)cc4)Cc4ccc5ccccc5c4)ccc3n2CCCN2CCOCC2)cc1 [Example 241] when tested on rh beta tryptase (Homo sapiens, UniProt P20231) reads 69

The value of inhibition at 10 µM recorded for CCCCN(Cc1ccc(CN)cc1)C(=O)c1ccc2c(c1)nc(CCc1ccc(C(=N)N)cc1)n2CCCN1CCN(c2ccccc2C)CC1 [Example 96] when tested on rh beta tryptase (Homo sapiens, UniProt P20231) reads 55

The value of inhibition at 10 µM recorded for CCCCN(Cc1ccc(CN)cc1)C(=O)c1ccc2c(c1)nc(CCc1ccc(C(=N)N)cc1)n2CCCOCC [Example 86] when tested on rh beta tryptase (Homo sapiens, UniProt P20231) reads 72

The value of inhibition at 10 µM recorded for Cc1ccccc1N1CCN(CCCn2c(CCc3ccc(C(=N)N)cc3)nc3cc(C(=O)N(CCN)CC4CCCCC4)ccc32)CC1 [Example 352] when tested on rh beta tryptase (Homo sapiens, UniProt P20231) reads 51

The value of inhibition at 10 µM recorded for N=C(N)c1ccc(CCc2nc3cc(C(=O)N(Cc4ccc(CN)cc4)Cc4ccccc4F)ccc3n2CC2CCCO2)cc1 (stereo not shown) [Example 226] when tested on rh beta tryptase (Homo sapiens, UniProt P20231) reads 64

The value of inhibition at 10 µM recorded for N=C(N)c1ccc(CCc2nc3cc(C(=O)N(Cc4ccc(CN)cc4)Cc4ccc5ccccc5c4)ccc3n2CCC2CCCCC2)cc1 [Example 233] when tested on rh beta tryptase (Homo sapiens, UniProt P20231) reads 53

The value of inhibition at 10 µM recorded for CCOCCCn1c(CCc2ccc(C(=N)N)cc2)nc2cc(C(=O)N(Cc3ccc(CN)cc3)CC3CCCCC3)ccc21 [Example 150] when tested on rh beta tryptase (Homo sapiens, UniProt P20231) reads 60

The value of inhibition at 10 µM recorded for N=C(N)c1ccc(CCc2nc3cc(C(=O)N(Cc4ccc(CN)cc4)Cc4ccc5ccccc5c4)ccc3n2CC2CCCO2)cc1 (stereo not shown) [Example 242] when tested on rh beta tryptase (Homo sapiens, UniProt P20231) reads 63

The values you see were collected from patent US6512000B1.
